# Tested on: HeLa cells
# experiment.summary: Compound screen by flow cytometry: HeLa cell count as surrogate readout of cell viability (z-scoreHeLa)
# Type: cell-based, human
# condition: PKIS compound screen, HeLa cell count, replicate 1
# Protocol: The cells were resuspended in cell culture medium without antibiotics, seeded with 10,000 cells/well into Costar flat-bottom 96-well plates (Corning, Amsterdam, the Netherlands), and were incubated overnight at 37°C/5% CO2. […] The calculated mean MOI throughout all experiments was 6.8 ± 4.6 (mean ± SD). […] HeLa cells were harvested by trypsinization and fixed with 1% paraformaldehyde. Samples were measured on a FACSLyric with HTS extension (BD Biosciences). […]
Consider the following compounds and their measured z-scoreHeLa rep 1 readings.

c1ccc(Oc2ccc(Nc3ccnc4cc(-c5ccc(CNCCN6CCOCC6)o5)ccc34)cc2)nc1 [GW567145X] ... -0.15
COc1ccc(S(=O)(=O)NC2CCN(c3cc(C)nc(Nc4cccc(C#N)c4)n3)CC2)cc1 [GSK1653539A] ... -0.85
O=C1Nc2ccc(C(=O)c3ccco3)cc2C1=Cc1cc(Cl)c(O)c(Cl)c1 [GW406108X] ... 1.26
O=C1Nc2ccc(-c3cccnc3)cc2C1=Cc1cc(Br)c(O)c(Br)c1 [GW429374A] ... 0.73

Kindly note: HeLa cells, O=C(O[C@H]1CN[C@H](C#Cc2cc3ncnc(Nc4ccc5c(cnn5Cc5ccccc5)c4)c3s2)C1)N1CCOCC1 [GSK200398A] , z-scoreHeLa rep 1 value reported: 0.35

Kindly note: HeLa cells, COC(=O)c1cccc(NC(=O)NC2CCN(c3ccnc(Nc4ccc(OC)cc4)n3)C2)c1 (centres unmarked) [GSK1379746A] , z-scoreHeLa rep 1 value reported: -0.90

Kindly note: HeLa cells, CC(C)c1nc(-c2cccc(NS(=O)(=O)c3ccccc3)c2)c(-c2ccnc(Nc3ccc4c(c3)CN(C)CC4)n2)s1 [GSK1649598A] , z-scoreHeLa rep 1 value reported: -0.48

Kindly note: HeLa cells, CC(C)(C)c1ccc2nccc(Nc3cccc(O)c3)c2c1 [GW856795X] , z-scoreHeLa rep 1 value reported: 2.26

###

# System: HeLa cells
# experiment.summary: Compound screen by flow cytometry: HeLa cell count as surrogate readout of cell viability (z-scoreHeLa)
# Assay type: cell-based, human
# condition: PKIS compound screen raw data, HeLa cell count, replicate 3
# Description: The cells were resuspended in cell culture medium without antibiotics, seeded with 10,000 cells/well into Costar flat-bottom 96-well plates (Corning, Amsterdam, the Netherlands), and were incubated overnight at 37°C/5% CO2. […] The calculated mean MOI throughout all experiments was 6.8 ± 4.6 (mean ± SD). […] HeLa cells were harvested by trypsinization and fixed with 1% paraformaldehyde. Samples were measured on a FACSLyric with HTS extension (BD Biosciences). […]
Use Fulfilled when the recorded cell count rep 3 is no lower than 20000; use Not fulfilled when it is lower.

NS(=O)(=O)c1cccc(-c2cc3ccncc3cc2OCc2ccccc2)c1 [GSK980961A] ... Fulfilled
CN(C)CCCNc1nccc(-c2c(-c3ccc(F)cc3)nn3cc(C(F)(F)F)ccc23)n1 [GW618013A] ... Fulfilled
O=C(NC1CCN(c2ccnc(Nc3ccc(F)cc3)n2)C1)c1cc2ccccc2s1 (stereo not shown) [GSK1379716A] ... Not fulfilled
NCCCC(NC(=O)c1cc(Br)c(-c2ccnc3[nH]ccc23)s1)c1ccccc1 (stereo not shown) [GSK1287544A] ... Not fulfilled
Cc1cc(-c2ccnc(Nc3cccc(C#N)c3)n2)cc(C)c1O [GSK1440913A] ... Not fulfilled
Cc1c2ccc(N(C)c3ccnc(Nc4cccc(S(N)(=O)=O)c4)n3)cc2nn1C [GW771127A] ... Fulfilled

Q: Please check the record O=C(Nc1n[nH]c2cc(-c3cccc(F)c3F)ccc12)C1CC1 [SB-733894] and state if its cell count rep 3 is at or above 20000.
A: Not fulfilled

Q: Please check the record c1ccc(Oc2ccc(Nc3ccnc4cc(-c5ccc(CNCCN6CCOCC6)o5)ccc34)cc2)nc1 [GW567145X] and state if its cell count rep 3 is at or above 20000.
A: Not fulfilled

Q: Please check the record O=C(Nc1ccc(Oc2ccc3nc(NC(=O)c4ccco4)[nH]c3c2)cc1)Nc1cc(C(F)(F)F)ccc1F [GW683134A] and state if its cell count rep 3 is at or above 20000.
A: Not fulfilled

Q: Please check the record Nc1nccc2scc(-c3ccc4c(c3)CCN4C(=O)Cc3ccccc3)c12 [GSK2576924A] and state if its cell count rep 3 is at or above 20000.
A: Not fulfilled

Q: Please check the record CS(=O)(=O)Cc1ccc(Nc2nccc(-c3c(-c4cccc(NC(=O)C5CCCCC5)c4)nn4ncccc34)n2)cc1 [GSK350559A] and state if its cell count rep 3 is at or above 20000.
A: Not fulfilled
